Target entity: T1, hBCMA (human BCMA) (Homo sapiens, UniProt Q02223)
T1 sequence (Q02223 1-184): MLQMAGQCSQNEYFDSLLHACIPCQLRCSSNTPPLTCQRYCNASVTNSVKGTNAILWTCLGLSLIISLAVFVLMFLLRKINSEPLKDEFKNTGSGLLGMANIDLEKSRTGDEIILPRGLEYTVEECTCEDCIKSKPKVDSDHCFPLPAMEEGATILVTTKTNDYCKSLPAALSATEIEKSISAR
Test summary: Kinetics and affinity of hBCMA/human IgG interactions by SPR (Bio-Rad Proteon XPR36)
Format: binding
Condition summary: huBCMA, 37° C.
Measured kd (1/s) huBCMA @37° C., listed per entry for reference.
Please reply with the bare figure in s⁻¹ and do not write the unit itself.

Q. Data request, read-out kd (1/s) huBCMA @37° C., for L3.PY/L1.FF/H2.QR: anti-BCMA antibody (antibody, V domains shown) VH: EVQLLESGGGLVQPGGSLRLSCAASGFTFGSYAMTWVRQAPGKGLEWVSAISGSGGNTFYADQRKGRFTISRDNSKNTLYLQMNSLRAEDTAVYYCARVSPIASGMDYWGQGTLVTVSS VL: EIVLTQSPGTLSLSPGERATLSCRASQSVSSFFLAWYQQKPGQAPRLLIYGASSRATGIPDRFSGSGSGTDFTLTISRLEPEDFAVYYCQHYPYPPSFTFGQGTKVEIK
A. 0.00177

Q. Data request, read-out kd (1/s) huBCMA @37° C., for L3.PY/H2.QL: anti-BCMA antibody (antibody, V domains shown) VH: EVQLLESGGGLVQPGGSLRLSCAASGFTFGSYAMTWVRQAPGKGLEWVSAISGSGGNTFYADQLKGRFTISRDNSKNTLYLQMNSLRAEDTAVYYCARVSPIASGMDYWGQGTLVTVSS VL: EIVLTQSPGTLSLSPGERATLSCRASQSVSSSYLAWYQQKPGQAPRLLIYGASSRATGIPDRFSGSGSGTDFTLTISRLEPEDFAVYYCQHYPYPPSFTFGQGTKVEIK
A. 0.00218

Note: attention shifts to another entry.
Q. Data request, read-out kd (1/s) huBCMA @37° C., for L3.PY/H3.AE: anti-BCMA antibody (antibody, V domains shown) VH: EVQLLESGGGLVQPGGSLRLSCAASGFTFGSYAMTWVRQAPGKGLEWVSAISGSGGNTFYADSVKGRFTISRDNSKNTLYLQMNSLRAEDTAVYYCARVSPIAAEMDYWGQGTLVTVSS VL: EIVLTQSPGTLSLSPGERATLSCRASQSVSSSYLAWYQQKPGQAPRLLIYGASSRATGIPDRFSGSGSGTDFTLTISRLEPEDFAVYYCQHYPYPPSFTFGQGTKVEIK
A. 0.00139
